assay: Log P by HPLC on reversed phase columns (EEC directive 79/831 Annex V.A8); type: physicochemical; conditions: method [a]
Would you mind telling me the reported LogP of each entry?

QUERY: // LogP lookup, key: CCOC(=O)C1(NC(=O)c2sc(Cl)c(Br)c2Br)CC1 [1.0210]
RESULT: 3.48^[a]

QUERY: // LogP lookup, key: CCOC(=O)[C@H](CO)NC(=O)c1sc(Br)c(Cl)c1C [1.0841]
RESULT: 2.59^[a]

QUERY: // LogP lookup, key: O=C(NC1(C(=O)OCc2ccccc2)CCC1)c1sc(Cl)c(Cl)c1Br [1.0888]
RESULT: 5.00^[a]

QUERY: // LogP lookup, key: CCCOC(=O)C1(NC(=O)c2sc(Cl)c(Br)c2Cl)CC1 [1.0596]
RESULT: 3.98^[a]

QUERY: // LogP lookup, key: CCCOC(=O)C1(NC(=O)c2cc(Cl)c(Br)s2)CC1 [1.0598]
RESULT: 3.28^[a]

QUERY: // LogP lookup, key: COC(=O)C(CC(F)F)NC(=O)c1sc(Cl)c(Br)c1Br (stereo not shown) [1.0214]
RESULT: 3.64^[a]

QUERY: // LogP lookup, key: CCOC(=O)C(Cc1c[nH]c2ccccc12)NC(=O)c1sc(Br)c(Br)c1F (stereo not shown) [1.0137]
RESULT: 4.08^[a]

QUERY: // LogP lookup, key: CCCOC(=O)C1(NC(=O)c2sc(C#N)c(Cl)c2Cl)CC1 [1.0580]
RESULT: 3.15^[a]

QUERY: // LogP lookup, key: COC(=O)C1(NC(=O)c2sc(Cl)c(Br)c2F)CCC1 [1.0641]
RESULT: 3.29^[a]

QUERY: // LogP lookup, key: COC(=O)C(C)(C)NC(=O)c1sc(C#N)c(Br)c1Cl [1.0589]
RESULT: 2.93^[a]

* * *

assay: Log P by HPLC on reversed phase columns (EEC directive 79/831 Annex V.A8); type: physicochemical; conditions: method [a]
Would you mind telling me the reported LogP of each entry?

QUERY: // LogP lookup, key: COC(=O)C(NC(=O)c1sc(Cl)c(Br)c1C#N)C1CC1 (stereo not shown)
RESULT: 2.93^[a]

QUERY: // LogP lookup, key: N#Cc1c(C(=O)NC2(C(N)=O)CC2)sc(Cl)c1Cl
RESULT: 1.71^[a]

QUERY: // LogP lookup, key: COC(=O)C1(NC(=O)c2sc(I)c(Cl)c2Cl)CC1
RESULT: 3.01^[a]

QUERY: // LogP lookup, key: CCOC(=O)C(CC1CC1)NC(=O)c1sc(Cl)c(Br)c1C (stereo not shown)
RESULT: 4.30^[a]

QUERY: // LogP lookup, key: CCOC(=O)C1(NC(=O)c2sc(C#N)c(Br)c2Cl)CCC1
RESULT: 3.38^[a]

QUERY: // LogP lookup, key: CCOC(=O)C1(NC(=O)c2sc(Cl)c(Br)c2C#N)CC1
RESULT: 2.70^[a]

QUERY: // LogP lookup, key: CCOC(=O)C(CCSC)NC(=O)c1sc(Br)c(Br)c1F (stereo not shown)
RESULT: 4.05^[a]

QUERY: // LogP lookup, key: N#Cc1sc(C(=O)NC2(C(=O)OC3CCC3)CC2)c(Cl)c1Br
RESULT: 3.32^[a]

QUERY: // LogP lookup, key: N#CCNC(=O)c1sc(Cl)c(Br)c1C#N
RESULT: 2.07^[a]

QUERY: // LogP lookup, key: CCOC(=O)CNC(=O)c1sc(Cl)c(Cl)c1C#N
RESULT: 2.52^[a]

* * *

Experiment: Log P by HPLC on reversed phase columns (EEC directive 79/831 Annex V.A8)
Format: physicochemical
Conditions: method marked [a]
Method: In the above tables, measurement of Log P values was performed according to EEC directive 79/831 Annex V.A8 by HPLC (High Performance Liquid Chromatography) on reversed phase columns with the following methods: • ^[a] […] Lambda-max-values were determined using UV-spectra from 200 nm to 400 nm and the peak values of the chromatographic signals.
Would you mind telling me the reported LogP of each entry?

QUERY: // LogP lookup, key: CCOC(=O)CNC(=O)c1cc(Cl)c(C#N)s1
RESULT: 2.10^[a]

QUERY: // LogP lookup, key: COC(=O)C(NC(=O)c1cc(Br)c(C(F)(F)F)s1)C1CC1 (stereo not drawn)
RESULT: 3.41^[a]

QUERY: // LogP lookup, key: COC(=O)CNC(=O)c1sc(C#N)c(Cl)c1Br
RESULT: 2.25^[a]

QUERY: // LogP lookup, key: CCOC(=O)C1(NC(=O)c2cc(Br)c(C(F)(F)F)s2)CCC1
RESULT: 3.70^[a]

QUERY: // LogP lookup, key: COC(=O)C(C)(C)NC(=O)c1sc(F)c(Br)c1Br
RESULT: 3.38^[a]

QUERY: // LogP lookup, key: CCOC(=O)C(C)NC(=O)c1sc(Cl)c(Cl)c1F (stereo not drawn)
RESULT: 3.34^[a]

QUERY: // LogP lookup, key: COC(=O)C1(NC(=O)c2sc(Cl)c(Cl)c2C#N)CC1
RESULT: 2.33^[a]

QUERY: // LogP lookup, key: COC(=O)C(NC(=O)c1sc(Cl)c(Cl)c1C(F)F)C(=O)OC
RESULT: 3.00^[a]

QUERY: // LogP lookup, key: COC(=O)C(CCSC)NC(=O)c1sc(Br)c(Br)c1Cl (stereo not drawn)
RESULT: 4.04^[a]

QUERY: // LogP lookup, key: Cc1c(C(=O)NC2(C(=O)OC3CCC3)CCC2)sc(Br)c1Cl
RESULT: 4.33^[a]

QUERY: // LogP lookup, key: COC(=O)C(CC(F)F)NC(=O)c1sc(Br)c(Br)c1C(F)(F)F (stereo not drawn)
RESULT: 3.31^[a]

QUERY: // LogP lookup, key: CCOC(=O)C(C#N)NC(=O)c1sc(Cl)c(Br)c1Br (stereo not drawn)
RESULT: 3.38^[a]

QUERY: // LogP lookup, key: CCOC(=O)C(Cc1ccccc1)NC(=O)c1cc(Br)c(C(F)(F)F)s1 (stereo not drawn)
RESULT: 4.36^[a]

QUERY: // LogP lookup, key: CCOC(=O)C1(NC(=O)c2cc(Br)c(F)s2)CC1
RESULT: 2.57^[a]

QUERY: // LogP lookup, key: CCOC(=O)CNC(=O)c1sc(F)c(Cl)c1C
RESULT: 2.59^[a]

QUERY: // LogP lookup, key: COC(=O)[C@H](CCCNC(=N)N)NC(=O)c1sc(Br)c(Br)c1F
RESULT: 1.66^[a]

QUERY: // LogP lookup, key: CCOC(=O)C(C)(C)NC(=O)c1sc(Br)c(Cl)c1C
RESULT: 3.71^[a]

QUERY: // LogP lookup, key: O=C(NC(C(=O)O)C1CC1)c1sc(Br)c(Br)c1I (stereo not drawn)
RESULT: 2.97^[a]

QUERY: // LogP lookup, key: CCOC(=O)C(C)(C)NC(=O)c1sc(Cl)c(Br)c1C
RESULT: 3.66^[a]

QUERY: // LogP lookup, key: CCOC(=O)C(Cc1ccccc1)NC(=O)c1sc(C#N)c(Cl)c1Br (stereo not drawn)
RESULT: 4.14^[a]

QUERY: // LogP lookup, key: COC(=O)C(NC(=O)c1cc(Cl)c(C#N)s1)C1CC1 (stereo not drawn)
RESULT: 2.50^[a]

QUERY: // LogP lookup, key: CCOC(=O)C1(NC(=O)c2sc(Cl)c(Cl)c2F)CCC1
RESULT: 3.70^[a]

QUERY: // LogP lookup, key: CCOC(=O)C1(NC(=O)c2sc(Br)c(C#N)c2Cl)CCC1
RESULT: 3.30^[a]

QUERY: // LogP lookup, key: CCOC(=O)C(NC(=O)c1sc(C#N)c(Cl)c1Br)C(C)C (stereo not drawn)
RESULT: 3.90^[a]

QUERY: // LogP lookup, key: CCOC(=O)C(NC(=O)c1sc(Cl)c(Cl)c1C#N)C(C)C (stereo not drawn)
RESULT: 3.77^[a]

QUERY: // LogP lookup, key: COC(=O)C(C)(C)NC(=O)c1sc(Br)c(C#N)c1Cl
RESULT: 2.84^[a]

QUERY: // LogP lookup, key: CCOC(=O)C(NC(=O)c1cc(Br)c(F)s1)C(C)C (stereo not drawn)
RESULT: 3.54^[a]

QUERY: // LogP lookup, key: COC(=O)CNC(=O)c1cc(C#N)c(Br)s1
RESULT: 1.79^[a]

QUERY: // LogP lookup, key: CCOC(=O)C1(NC(=O)c2sc(F)c(Br)c2C)CC1
RESULT: 2.83^[a]

QUERY: // LogP lookup, key: COC(=O)[C@H](CCSC)NC(=O)c1sc(C#N)c(Br)c1C
RESULT: 3.03^[a]

QUERY: // LogP lookup, key: O=C(NC(C(=O)O)C1CC1)c1cc(Br)c(Cl)s1 (stereo not drawn)
RESULT: 2.44^[a]

QUERY: // LogP lookup, key: CCOC(=O)CNC(=O)c1sc(C#N)c(Br)c1Br
RESULT: 2.75^[a]

QUERY: // LogP lookup, key: O=C(NC(C(=O)O)C1CC1)c1cc(Cl)c(Br)s1 (stereo not drawn)
RESULT: 2.41^[a]

QUERY: // LogP lookup, key: COC(=O)C1(NC(=O)c2sc(Br)c(C#N)c2Cl)CCC1
RESULT: 2.89^[a]

QUERY: // LogP lookup, key: CCOC(=O)C(CO)NC(=O)c1sc(C#N)c(Br)c1Br (stereo not drawn)
RESULT: 2.62^[a]

QUERY: // LogP lookup, key: CCOC(=O)C(CCSC)NC(=O)c1cc(Br)c(F)s1 (stereo not drawn)
RESULT: 3.31^[a]

QUERY: // LogP lookup, key: COC(=O)C(NC(=O)c1sc(Cl)c(C#N)c1Cl)C1CC1 (stereo not drawn)
RESULT: 2.97^[a]

QUERY: // LogP lookup, key: CCOC(=O)C(CCSC)NC(=O)c1sc(Cl)c(Cl)c1F (stereo not drawn)
RESULT: 3.95^[a]

QUERY: // LogP lookup, key: CCOC(=O)CNC(=O)c1sc(Cl)c(C#N)c1Cl
RESULT: 2.54^[a]

QUERY: // LogP lookup, key: CCOC(=O)C1(NC(=O)c2cc(C#N)c(Cl)s2)CC1
RESULT: 2.28^[a]

QUERY: // LogP lookup, key: CCOC(=O)C(CSC)NC(=O)c1sc(Br)c(Cl)c1C (stereo not drawn)
RESULT: 3.94^[a]

QUERY: // LogP lookup, key: CCOC(=O)C(NC(=O)c1sc(Br)c(Br)c1C(F)(F)F)C(C)C (stereo not drawn)
RESULT: 4.09^[a]
